system: ROR1 or ROR2; assay: ROR2 cross-reactivity ELISA (ROR1/ROR2 signal ratio); assay type: binding; conditions: Table 11; SP34 light chain
METRIC: ROR1/ROR2 ELISA ratio
Write the value as a bare number.

In the examples that follow, each entry is paired with its recorded ROR1/ROR2 ELISA ratio.
MOLECULE | ROR1/ROR2 ELISA ratio
SRP2196-B01 (antibody, V domains shown) VH: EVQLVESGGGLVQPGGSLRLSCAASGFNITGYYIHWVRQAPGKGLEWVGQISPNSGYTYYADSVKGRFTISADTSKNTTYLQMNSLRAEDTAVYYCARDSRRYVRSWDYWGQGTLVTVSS VL: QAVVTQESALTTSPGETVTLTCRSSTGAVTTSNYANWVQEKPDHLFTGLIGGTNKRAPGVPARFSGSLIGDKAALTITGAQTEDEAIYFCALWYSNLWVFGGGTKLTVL | 17.2
SRP2196-A09 (antibody, V domains shown) VH: EVQLVESGGGLVQPGGSLRLSCAASGFNITGYYIHWVRQAPGKGLEWVGQISPNSGATHYADSVKGRFTISADTSKNTAYLQMNSLRAEDTAVYYCARDSRRYIRSWDYWGQGTLVTVSS VL: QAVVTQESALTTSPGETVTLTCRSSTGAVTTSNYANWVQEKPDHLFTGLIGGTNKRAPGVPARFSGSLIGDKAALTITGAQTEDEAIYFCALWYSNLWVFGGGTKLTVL | 20.1

Next molecule, ROR1/ROR2 ELISA ratio to be filled in.
-- ask // returns reported ROR1/ROR2 ELISA ratio for input SRP2196-A07 (antibody, V domains shown) VH: EVQLVESGGGLVQPGGSLRLSCAASGFNITGYYIHWVRQAPGKGLEWVGQISPNSGSTYYADSVKGRFTISADTSKNTAYLQMSSLRAEDTAVYYCARDSRRYVRGWDYWGQGTLVTVSS VL: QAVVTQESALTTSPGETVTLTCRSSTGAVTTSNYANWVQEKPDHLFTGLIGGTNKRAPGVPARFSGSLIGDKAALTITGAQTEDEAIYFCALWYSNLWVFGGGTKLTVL
-- reply 16.3
